B1: RSPH3 (parent)
chain: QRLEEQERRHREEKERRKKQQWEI

- Variants of: B1
- experiment description: protein stability index of a GFP-peptide fusion (GPS, HEK-293T) (PSI 1-6); higher = more stable;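 also: lentivirally expressed fusions sorted by FACS into six bins by GFP to DsRed ratio, PSI derived from sequencing read proportions per bin multiplied by bin number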
- stated conditions: c terminus: a fixed tail appended
readout label: protein stability index

[
  {
    "mutant name": "W22K",
    "result value": 5
  },
  {
    "mutant name": "Q6P",
    "result value": 4.47
  },
  {
    "mutant name": "E13N",
    "result value": 4.16
  },
  {
    "mutant name": "E7T",
    "result value": 4.95
  },
  {
    "mutant name": "R8G",
    "result value": 5.02
  },
  {
    "mutant name": "R17H",
    "result value": 4.53
  },
  {
    "mutant name": "R9C",
    "result value": 4.84
  },
  {
    "mutant name": "W22R",
    "result value": 5.43
  },
  {
    "mutant name": "R16I",
    "result value": 5
  },
  {
    "mutant name": "E12H",
    "result value": 4.03
  },
  {
    "mutant name": "E23Y",
    "result value": 4.09
  },
  {
    "mutant name": "Q20S",
    "result value": 4.8
  },
  {
    "mutant name": "H10N",
    "result value": 5.08
  },
  {
    "mutant name": "R16H",
    "result value": 4.77
  },
  {
    "mutant name": "R9F",
    "result value": 4.98
  },
  {
    "mutant name": "L3V",
    "result value": 4.82
  },
  {
    "mutant name": "Q21N",
    "result value": 4.67
  },
  {
    "mutant name": "R11V",
    "result value": 4.24
  },
  {
    "mutant name": "E4Q",
    "result value": 4.46
  },
  {
    "mutant name": "E7L",
    "result value": 4.55
  },
  {
    "mutant name": "E15A",
    "result value": 4.44
  },
  {
    "mutant name": "Q21H",
    "result value": 4.39
  },
  {
    "mutant name": "E13Y",
    "result value": 3.77
  },
  {
    "mutant name": "H10I",
    "result value": 4.5
  },
  {
    "mutant name": "R2Y",
    "result value": 4.07
  },
  {
    "mutant name": "Q1I",
    "result value": 4.4
  },
  {
    "mutant name": "R17E",
    "result value": 5.3
  },
  {
    "mutant name": "R11M",
    "result value": 4.6
  },
  {
    "mutant name": "W22P",
    "result value": 4.64
  },
  {
    "mutant name": "E4G",
    "result value": 5.08
  },
  {
    "mutant name": "E13T",
    "result value": 4.32
  },
  {
    "mutant name": "E7P",
    "result value": 4.75
  },
  {
    "mutant name": "Q1K",
    "result value": 4.29
  },
  {
    "mutant name": "K18N",
    "result value": 4.28
  },
  {
    "mutant name": "E7K",
    "result value": 4.36
  },
  {
    "mutant name": "E7A",
    "result value": 4.36
  },
  {
    "mutant name": "L3S",
    "result value": 4.91
  },
  {
    "mutant name": "R11T",
    "result value": 4.62
  },
  {
    "mutant name": "K14P",
    "result value": 4.55
  },
  {
    "mutant name": "L3I",
    "result value": 5
  },
  {
    "mutant name": "K18R",
    "result value": 3.87
  },
  {
    "mutant name": "E5T",
    "result value": 4.01
  },
  {
    "mutant name": "I24Y",
    "result value": 4.82
  },
  {
    "mutant name": "E12R",
    "result value": 4.37
  },
  {
    "mutant name": "R2A",
    "result value": 4.57
  },
  {
    "mutant name": "K18V",
    "result value": 4.18
  }
]
